Test system: HeLa cells
measurement.notes: 2-AG accumulation assay using HeLa cells
Assay type: cell-based
condition.context: 10 μM compound; 2-AG relative to MAFP, HeLa homogenate
quantity.name: Ex. 5 % MAFP @10 μM (% MAFP)

- COc1cccc(-c2nc3cc(C(=O)N4CC(N5CCN(c6ccccn6)CC5)C4)ccc3o2)c1: 86.9
- O=C(c1ccc2nc(C3CCCCC3)oc2c1)N1CC(N2CCN(c3ccccn3)CC2)C1: 100.8
- CC(C)Cn1c(-c2ccccc2)cc2cc(C(=O)N3CC(N4CCN(c5ccccn5)CC4)C3)ccc21: 93.5
- CC(C)Cc1cc2cc(C(=O)N3CC(N4CCN(c5ccccn5)CC4)C3)ccc2n1CC(C)C: 72.9
- COc1ccc(-c2nc3cccc(C(=O)N4CC(N5CCN(c6ccccn6)CC5)C4)c3o2)cc1: 79.5
- CCCc1cc2cc(C(=O)N3CC(N4CCN(c5ccccn5)CC4)C3)ccc2n1C: 61.1
- CC(C)(C)c1nc2ccc(C(=O)N3CC(N4CCN(c5ccccn5)CC4)C3)cc2o1: 47.3
